Attribution: ChEMBL document CHEMBL1159065

procedure-summary: Toxicity in human SK-N-MC cells by MTT method
Assay type: cell-based
measured-metric: pIC50
// field semantics: pIC50 = negative decimal log of concentration (mol/L)

CC(=O)N(O)CCCCCNC(=O)CCC(=O)N(O)CCCCCNC(=O)CCC(=O)N(O)CCCCCNC(=O)c1ccc(-n2nc(-c3ccccc3O)nc2-c2ccccc2O)cc1 | 4.69

Item under review: Cc1c(O)c(=O)ccn1C [DEFERIPRONE] . Reported pIC50?
3.78

====

procedure-summary: Toxicity in MDCK cells by MTT method
Type: cell-based, Canis lupus familiaris
measurement-conditions: dog
measured-metric: IC50 (µM)
Give your result in µM as a bare value.

CC(=O)N(O)CCCCCNC(=O)CCC(=O)N(O)CCCCCNC(=O)CCC(=O)N(O)CCCCCNC(=O)C12CC3CC(C)(CC(C)(C3)C1)C2 | 163
CC(=O)N(O)CCCCCNC(=O)CCC(=O)N(O)CCCCCNC(=O)CCC(=O)N(O)CCCCCNC(=O)c1ccc(-n2nc(-c3ccccc3O)nc2-c2ccccc2O)cc1 | 23.4
CC(=O)N(O)CCCCCNC(=O)CCC(=O)N(O)CCCCCNC(=O)CCC(=O)N(O)CCCCCNC(=O)CC12CC3CC(CC(C3)C1)C2 | 226
CC(=O)N(O)CCCCCNC(=O)CCC(=O)N(O)CCCCCNC(=O)CCC(=O)N(O)CCCCCNC(=O)C12CC3CC(CC(C3)C1)C2 | 119

Then this molecule:
Could you tell me which IC50 is on file for `CC(=O)N(O)CCCCCNC(=O)CCC(=O)N(O)CCCCCNC(=O)CCC(=O)N(O)CCCCCN` ?
9.49
